- METHOD_NOTES: Oral bioavailability in Han Wistar rat at 7.4 to 14.7 umol/kg
- Format: ADME, organism-based
- EXPERIMENTAL_SETUP: Han Wistar, in vivo
bioavailability vs 60%: at or above is 1, below is -1.

[
  {
    "ITEM_SMILES": "O=C(N[C@H]1C2CC3CC1C[C@](O)(C3)C2)c1cnc(NC2CCOCC2)nc1C1CCC1",
    "ANSWER_LABEL": 1
  },
  {
    "ITEM_SMILES": "CC(C)Oc1nc(N[C@@H]2CCOC2)ncc1C(=O)N[C@H]1C2CC3CC1C[C@](O)(C3)C2",
    "ANSWER_LABEL": 1
  },
  {
    "ITEM_SMILES": "CC(C)(O)CNc1ncc(C(=O)N[C@H]2C3CC4CC2C[C@](O)(C4)C3)c(C2CCC2)n1",
    "ANSWER_LABEL": 1
  },
  {
    "ITEM_SMILES": "O=C(N[C@H]1C2CC3CC1C[C@](O)(C3)C2)c1cnc(N[C@H]2CCOC2)nc1C1CCC1",
    "ANSWER_LABEL": 1
  },
  {
    "ITEM_SMILES": "O=C(N[C@H]1C2CC3CC1C[C@](O)(C3)C2)c1cnc(N[C@H]2CCOC2)nc1C1CC1",
    "ANSWER_LABEL": 1
  }
]

*Q* Would you say `O=C(N[C@H]1C2CC3CC1C[C@](O)(C3)C2)c1cnc(N[C@H]2CCOC2)nc1OC1CCC1` shows bioavailability at minimum 60%?
*A* 1

*Q* Ok, now `CC(C)(O)CNc1ncc(C(=O)N[C@H]2C3CC4CC2C[C@](O)(C4)C3)c(C2CCCC2)n1`
*A* -1

*Q* Ok, now `C[C@@H](O)CNc1ncc(C(=O)N[C@H]2C3CC4CC2C[C@](O)(C4)C3)c(C2CCCC2)n1`
*A* 1

*Q* Ok, now `O=C(N[C@H]1C2CC3CC1C[C@](O)(C3)C2)c1cnc(NC2CCOCC2)nc1OC1CCC1`
*A* 1

* * *

Entries below carry reported IC50 on 11-beta-hydroxysteroid dehydrogenase 1 (Mus musculus, UniProt P50172).
Sequence (P50172 whole entry): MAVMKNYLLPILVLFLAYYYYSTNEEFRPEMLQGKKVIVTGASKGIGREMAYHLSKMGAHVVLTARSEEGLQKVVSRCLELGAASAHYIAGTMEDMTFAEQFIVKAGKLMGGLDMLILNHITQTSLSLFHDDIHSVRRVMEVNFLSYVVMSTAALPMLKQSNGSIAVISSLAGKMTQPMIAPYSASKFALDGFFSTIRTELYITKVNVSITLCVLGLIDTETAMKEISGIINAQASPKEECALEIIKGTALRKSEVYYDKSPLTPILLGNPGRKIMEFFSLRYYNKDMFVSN

The following compounds have reported results that may help.
[
  {
    "ITEM_SMILES": "O=C(N[C@H]1C2CC3CC1C[C@](O)(C3)C2)c1cnc(N[C@H]2CCOC2)nc1OC1CCC1",
    "TARGET_UNDER_TEST": "11-beta-hydroxysteroid dehydrogenase 1 (Mus musculus, UniProt P50172)",
    "MEASUREMENT_NAME": "IC50",
    "RESULT": "22 nM"
  },
  {
    "ITEM_SMILES": "CC(C)(CO)Nc1ncc(C(=O)N[C@H]2C3CC4CC2C[C@](O)(C4)C3)c(C2CC2)n1",
    "TARGET_UNDER_TEST": "11-beta-hydroxysteroid dehydrogenase 1 (Mus musculus, UniProt P50172)",
    "MEASUREMENT_NAME": "IC50",
    "RESULT": "20 nM"
  },
  {
    "ITEM_SMILES": "CC(C)(CO)Nc1ncc(C(=O)N[C@H]2C3CC4CC2C[C@](O)(C4)C3)c(C2CCCC2)n1",
    "TARGET_UNDER_TEST": "11-beta-hydroxysteroid dehydrogenase 1 (Mus musculus, UniProt P50172)",
    "MEASUREMENT_NAME": "IC50",
    "RESULT": "32 nM"
  }
]

// next item, IC50 requested
*Q* Short answer please: IC50, 11-beta-hydroxysteroid dehydrogenase 1 (Mus musculus, UniProt P50172), entry `O=C(N[C@H]1C2CC3CC1C[C@](O)(C3)C2)c1cnc(NC2CCS(=O)(=O)CC2)nc1OC1CCC1`
*A* 31 nM
